pKd values for the binders below.
# assayed_system: T1, human 4Ig-B7H3 (B7H3-4Ig-His) (human, UniProt Q5ZPR3 29-466)
# T1 construct: Recombinant His-tagged protein immobilised on a CM5 chip; also called 41g-B7H3; human 4Ig-B7-H3 (dominant isoform); not shown: His tag
# T1 sequence: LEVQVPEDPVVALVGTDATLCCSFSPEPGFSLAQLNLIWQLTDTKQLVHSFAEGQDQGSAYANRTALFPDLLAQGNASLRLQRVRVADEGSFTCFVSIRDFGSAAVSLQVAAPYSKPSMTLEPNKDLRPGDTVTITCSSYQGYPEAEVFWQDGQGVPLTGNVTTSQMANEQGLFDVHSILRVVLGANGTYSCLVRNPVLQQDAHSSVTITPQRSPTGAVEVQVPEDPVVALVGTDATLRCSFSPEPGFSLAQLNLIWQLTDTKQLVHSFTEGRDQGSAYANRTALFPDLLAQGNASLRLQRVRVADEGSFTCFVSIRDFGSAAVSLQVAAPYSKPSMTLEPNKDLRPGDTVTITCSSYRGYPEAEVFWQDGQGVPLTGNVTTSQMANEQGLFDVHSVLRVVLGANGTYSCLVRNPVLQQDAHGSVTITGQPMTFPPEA
# experiment_description: SPR, Biacore T200, 4Ig-B7H3-His on CM5 chip, 1:1 fit
Scale: pKd equals -log10([C]), with [C] in mol/L.

binder	pKd
175Lu-DOTA-8H9-antibody (CAR6.3) (antibody, mouse IgG1, kappa, V domains shown, p-SCN-Bn-DOTA conjugated (CAR 6.3 per antibody), labelled with cold lutetium-175; sites not stated) VH: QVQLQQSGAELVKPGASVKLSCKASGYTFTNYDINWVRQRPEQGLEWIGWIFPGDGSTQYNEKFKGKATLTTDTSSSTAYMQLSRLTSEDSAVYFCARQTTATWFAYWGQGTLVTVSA VL: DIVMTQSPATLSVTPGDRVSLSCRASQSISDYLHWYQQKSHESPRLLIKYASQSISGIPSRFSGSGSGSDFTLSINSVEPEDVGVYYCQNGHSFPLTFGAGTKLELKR	7.71

Moving on to the next binder.
// query pKd value for entry 175Lu-DTPA-8H9-antibody (CAR1.4) (antibody, mouse IgG1, kappa, V domains shown, p-SCN-Bn-CHX-A″-DTPA conjugated (CAR 1.4 per antibody), labelled with cold lutetium-175; sites not stated) VH: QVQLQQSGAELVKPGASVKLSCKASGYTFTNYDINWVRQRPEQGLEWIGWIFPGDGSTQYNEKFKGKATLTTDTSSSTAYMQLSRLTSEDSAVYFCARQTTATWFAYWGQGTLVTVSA VL: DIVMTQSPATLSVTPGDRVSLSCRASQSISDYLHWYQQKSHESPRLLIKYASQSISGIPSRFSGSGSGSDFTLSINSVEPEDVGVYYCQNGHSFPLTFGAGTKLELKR 8.12
